Target: N-glycosylase/DNA lyase (Homo sapiens) (UniProt O15527);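 also: OGG1 cleavage of a quenched duplex DNA oligonucleotide, coupled to APE1 for strand incision, read as fluorescence at 594 nm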
Sequence (O15527 whole entry): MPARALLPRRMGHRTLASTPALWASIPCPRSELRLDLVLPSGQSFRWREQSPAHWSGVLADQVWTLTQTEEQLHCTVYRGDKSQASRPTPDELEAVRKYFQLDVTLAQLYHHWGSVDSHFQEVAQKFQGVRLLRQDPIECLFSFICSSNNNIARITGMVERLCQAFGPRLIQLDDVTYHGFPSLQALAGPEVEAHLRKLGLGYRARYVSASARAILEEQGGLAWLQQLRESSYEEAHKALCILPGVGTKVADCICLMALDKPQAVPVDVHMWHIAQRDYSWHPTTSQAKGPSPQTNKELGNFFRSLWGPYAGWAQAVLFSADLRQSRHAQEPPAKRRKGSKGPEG
Settings: Compound Concentration 10.0 uM, Hit No
Description: Inhibition of OGG1 by quantifying inhibition of OGG1-mediated cleavage and dissociation of quenched duplex DNA oligonucleotides, measured as fluorescence at 594 nm. To generate a functional strand incision and increase turn-over this assay is coupled to APE1.
PARAMETER_MEASURED: inhibition (%)
Kindly provide the numeric value in % only, without the unit symbol.

Some solved cases for reference:
Item under review: CN(C(=O)/C=C/c1ccoc1)[C@@H]1CC[C@@]2(O)[C@H]3Cc4ccc(O)c5c4[C@@]2(CCN3CC2CC2)[C@H]1O5 . Reported inhibition? -1.76

Item under review: CCOC(=O)N1CCC(CN(Cc2ccc(Cl)cc2)Cc2ccc([N+](=O)[O-])s2)C1 (stereo not given) . Reported inhibition? 16.5

Item under review: CCC(C)(C)/N=C(\NC#N)Nc1cccnc1 . Reported inhibition? -5.35

Item under review: O=C(O)C1CN(Cc2ccc(-c3nc4cc(Cc5ccccc5F)ccc4s3)c(F)c2)C1 . Reported inhibition? -3.25

Item under review: NC[C@H](O)c1ccc(O)c(O)c1 . Reported inhibition? -2.34

Others:
Item under review: O=S(=O)(c1ccccc1)c1cnc2c(N3CCNCC3)cccc2c1 . Reported inhibition? -2.8

Item under review: O=c1[nH]c2ccccc2n1CCCN1CCN(C(c2ccccc2)c2ccccc2)CC1 . Reported inhibition? 10.8

Item under review: NC(=O)[C@@H]1CCCN1C(=O)[C@H](Cc1c[nH]cn1)NC(=O)[C@@H]1CCC(=O)N1 . Reported inhibition? -2.75

Item under review: CCN(Cc1ccncc1)C(=O)C(CO)c1ccccc1 (stereo not given) . Reported inhibition? -6.9

Item under review: O=C(N1CCS(=O)(=O)CC1)N1C[C@H](c2ccc(OC(F)(F)F)cc2)C[C@H](c2nc(C3CC3)no2)C1 . Reported inhibition? 1.66
